Test system: A498 renal
Assay: NCI tumour cell line growth inhibition, 48 h; in the data active = GI50 below about 0.43 µM; inactive = the rest
Select the matching outcome among active, inactive

Reference set, count: 6
CC(C)N(C[C@H]1O[C@@H](n2cnc3c(N)ncnc32)[C@H](O)[C@@H]1O)C1CC(CCc2nc3ccc(C(C)(C)C)cc3[nH]2)C1 (some centres undefined) ... inactive
CC(C)CNc1nc(N=[N+]=[N-])nc(NCC(C)C)n1 ... inactive
N#CC(C#N)=Cc1ccc(-c2ccc(-c3nc4ccccc4o3)cc2)o1 ... inactive
COc1ccc(NC(=O)O[C@H]2[C@H](O[C@H]3[C@@H](O)COC(O[C@H]4C[C@H]5[C@@H]6CC=C7C[C@@H](O)CC[C@]7(C)[C@H]6CC[C@]5(C)[C@H]4[C@H](C)C(=O)CCC(C)C)[C@@H]3OC(C)=O)OC[C@@H](O)[C@@H]2O)cc1 (some centres undefined) ... active
C=C(C)[C@@H]1CC[C@]2(C)[C@H](C=CC3=C4C[C@@](C)(CO)CC[C@]4(C)CC[C@]32C)[C@@]1(C)CCCN ... inactive
CCOC(=O)C(Cc1ccc(OC)cc1)C(=O)OCC ... inactive

Attention now turns to another entry.
Look up the recorded call for CC[C@@]1(OC(=O)CN)C(=O)OCc2c1cc1n(c2=O)Cc2cc3c(N)c4c(cc3nc2-1)OCO4 in this test.
active
